assay_info: protein stability index of a GFP-peptide fusion (yeast GPS) (PSI 1-4); higher = more stable; sorted into four equal gates, so the index is relative within each strain
condition_label: ubr1∆
sequences and their reported protein stability index
endpoint_name: protein stability index

>>> reported_measurement("TLLRLNELLDLTESQTE [RPN5]")
2.74
>>> reported_measurement("MKYIQTEQQIEIPEGVT [RPL9B]")
2.64
>>> reported_measurement("FNYNIFMHDPSVFYNIA [SIR2]")
1.76
>>> reported_measurement("FGTGQSTFGFNNSAPNN [YJL041W/NSP1]")
3.3
>>> reported_measurement("KIESLAGGGESDSALIL [UBP6]")
3.12
>>> reported_measurement("SKQVQVSQQPLSRGYTC [ECM29]")
2.92
>>> reported_measurement("RTQFGGGKSVGFGLVYN [RPS24A]")
2.91
